B1: HDV Ribozyme (parent)
chain: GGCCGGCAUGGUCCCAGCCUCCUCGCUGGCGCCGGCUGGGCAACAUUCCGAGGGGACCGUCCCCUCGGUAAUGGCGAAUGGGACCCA

- Variants of: B1
- assayExplanation: self-cleavage, relative activity (ratio to wild type); higher = more cleavage; co-transcriptional
Here, each record is paired with measured self-cleavage data.
Reply with the value as a number alone.

[
  {
    "variantString": "G38U G80C",
    "readout": "self-cleavage",
    "quantitativeResult": 0.108
  },
  {
    "variantString": "G35C G73A",
    "readout": "self-cleavage",
    "quantitativeResult": 0.0723
  },
  {
    "variantString": "G17U",
    "readout": "self-cleavage",
    "quantitativeResult": 0.548
  },
  {
    "variantString": "A16C A45G",
    "readout": "self-cleavage",
    "quantitativeResult": 1.05
  },
  {
    "variantString": "U47G G53C",
    "readout": "self-cleavage",
    "quantitativeResult": 1.19
  },
  {
    "variantString": "A45C G81U",
    "readout": "self-cleavage",
    "quantitativeResult": 0.262
  },
  {
    "variantString": "G5C C58G",
    "readout": "self-cleavage",
    "quantitativeResult": 0.378
  },
  {
    "variantString": "C15G U47C",
    "readout": "self-cleavage",
    "quantitativeResult": 0.128
  },
  {
    "variantString": "C44G U65A",
    "readout": "self-cleavage",
    "quantitativeResult": 0.443
  },
  {
    "variantString": "G40C G81A",
    "readout": "self-cleavage",
    "quantitativeResult": 0.0755
  }
]

Problem: self-cleavage lookup needed for A8G G29C , thanks.
Result: 0

Problem: self-cleavage lookup needed for C4A A83C , thanks.
Result: 0.232

Problem: self-cleavage lookup needed for U27G A70G , thanks.
Result: 1.14
